target: full-length WT STING (Homo sapiens (Human), UniProt Q86WV6, H232R); test: 3H-cGAMP filtration binding assay (WT STING); conditions: EC50, competition with tritiated cGAMP ligand, WT STING membrane
readout.type: pEC50
Scale note: pEC50 = -log10(concentration in M).

Examples from the recorded data:
molecule	subject.of.test	pEC50
Nc1nc2c(ncn2[C@@H]2O[C@@H]3COP(=O)(O)O[C@H]4[C@H](F)[C@H](n5cnc6c(N)ncnc65)O[C@@H]4COP(=S)(S)O[C@@H]2[C@@H]3F)c(=O)[nH]1 (some centres unmarked)	full-length WT STING (Homo sapiens (Human), UniProt Q86WV6, H232R)	6.29
Nc1nc2c(ncn2[C@@H]2O[C@@H]3COP(O)(=S)O[C@H]4C[C@H](n5cnc6c(N)ncnc65)O[C@@H]4COP(=S)(S)O[C@@H]2C3)c(=O)[nH]1 (single isomer, unassigned) [Example 10]	full-length WT STING (Homo sapiens (Human), UniProt Q86WV6, H232R)	8.22
Nc1nc2c(ncn2[C@@H]2O[C@@H]3COP(O)(=S)O[C@H]4C[C@H](n5cnc6c(N)ncnc65)O[C@@H]4COP(=S)(S)O[C@@H]2C3)c(=O)[nH]1 (single isomer, unassigned) [Example 11]	full-length WT STING (Homo sapiens (Human), UniProt Q86WV6, H232R)	7.47

Below: the item to evaluate.
Prompt line: Reported pEC50, molecule Nc1nc2c(ncn2[C@@H]2O[C@@H]3COP(=S)(S)O[C@H]4[C@H](F)[C@H](n5cnc6c(N)ncnc65)O[C@@H]4COP(O)(=S)O[C@@H]2[C@@H]3F)c(=O)[nH]1 (single isomer, unassigned) [Example 2] : ____
Response line: 8.05

---

target: full-length HAQ STING (Homo sapiens (Human), UniProt Q86WV6, G230A/H232R/R293Q/R71H); test: 3H-cGAMP filtration binding assay (HAQ STING); conditions: competition with tritiated cGAMP ligand, HAQ STING membrane
Sequence (Q86WV6 whole entry, looked up, stated change not applied): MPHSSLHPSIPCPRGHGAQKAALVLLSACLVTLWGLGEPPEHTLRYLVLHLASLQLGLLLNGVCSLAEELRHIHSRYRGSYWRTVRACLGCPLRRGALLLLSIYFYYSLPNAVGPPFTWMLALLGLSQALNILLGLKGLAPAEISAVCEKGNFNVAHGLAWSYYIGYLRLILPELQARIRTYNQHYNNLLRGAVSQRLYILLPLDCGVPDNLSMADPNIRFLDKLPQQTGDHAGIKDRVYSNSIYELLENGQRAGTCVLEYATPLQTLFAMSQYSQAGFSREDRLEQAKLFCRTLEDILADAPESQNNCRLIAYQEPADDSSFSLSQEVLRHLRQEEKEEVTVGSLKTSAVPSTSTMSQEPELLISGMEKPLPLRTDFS
Recorded measurements of pEC50, one per entry
Scale note: pEC50 = -log10(concentration in M).

molecule	readout.type	data.value
Nc1nc2c(ncn2[C@@H]2O[C@@H]3COP(=S)(S)O[C@H]4C[C@H](n5ccc6c(N)ncnc65)O[C@@H]4COP(O)(=S)O[C@@H]2C3)c(=O)[nH]1 (single isomer, unassigned) [Example 6]	pEC50	7.55

Below: the item to evaluate.
Prompt line: Reported pEC50, molecule Nc1nc2c(ncn2[C@@H]2S[C@@H]3COP(=S)(S)O[C@H]4[C@H](F)[C@H](n5cnc6c(N)ncnc65)O[C@@H]4COP(=O)(O)O[C@@H]2[C@@H]3O)c(=O)[nH]1 (stereo partly drawn) : ____
Response line: 9.00

---

Recorded measurements of EC50, one per entry
target: full-length WT STING (Homo sapiens (Human), UniProt Q86WV6, H232R); assay: 3H-cGAMP filtration binding assay (WT STING); conditions: competition with tritiated cGAMP ligand, WT STING membrane; read-out: EC50

compound	EC50
Nc1nc2c(ncn2[C@@H]2O[C@@H]3COP(=S)(S)O[C@H]4C[C@H](c5cnc6c(N)ncnn56)O[C@@H]4COP(O)(=S)O[C@@H]2C3)c(=O)[nH]1 (single isomer, unassigned) [Example 7]	< 1 nM
Nc1nc2c(ncn2[C@@H]2S[C@@H]3COP(=S)(S)O[C@H]4[C@H]5OC[C@]4(COP(=O)(O)O[C@@H]2[C@@H]3O)O[C@H]5n2cnc3c(N)ncnc32)c(=O)[nH]1 (stereo partly drawn)	1550 nM

Below: the item to evaluate.
Prompt line: Give full-length WT STING (Homo sapiens (Human), UniProt Q86WV6, H232R) EC50 for Nc1nc2c(ncn2[C@@H]2O[C@@H]3COP(O)(=S)O[C@H]4C[C@H](n5cnc6c(=O)[nH]cnc65)O[C@@H]4COP(=S)(S)O[C@@H]2C3)c(=O)[nH]1 (stereo partly drawn)
Response line: 409 nM
